test: chemical genetic growth profiling, strain panel (AID 1159580);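 further: tested at 20 µM; growth read once vehicle control cultures reached saturation at 30 °C; 1 = growth at the plate median or of vehicle wells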; conditions: S. cerevisiae deletion strains, growth OD, locus YLR342W, strain FKS1
About 2,000 (36%) of roughly 5,500 compounds were called active. About 18% were inconclusive and are not listed. No stated cut-off is given here; in the data, active means normalized growth mostly below about 0.91 (no sharp cut-off); inconclusive means no clear call, values can overlap the other calls; inactive means mostly above about 0.92. This is one part of the list.
Classes used: active, inactive

Compound	Cat
CC1(C)O[C@@H]2CC3C4C[C@H](F)C5=CC(=O)CC[C@]5(C)C4[C@@H](O)C[C@]3(C)[C@]2(C(=O)CO)O1 (stereo not given in full)	inactive
CNC[C@H](O)c1cccc(O)c1	inactive
O=c1c2cc(O)c(O)cc2oc2cc(O)c(C3O[C@H](CO)[C@H](O)[C@@H](O)[C@H]3O)c(O)c12 (stereo not given in full)	inactive
CC(C)c1cccc(O)c(=O)c1	active
CC1(C)C(O)CC(=O)C2(C)C1CC(O)C1(C)C2CCC2(C)C(c3ccoc3)OC(=O)C3OC321 (stereo not given)	inactive

====

experiment: chemical genetic growth profiling, strain panel (AID 1159580); details: S. cerevisiae deletion strains, growth OD, locus YMR277W, strain FCP1
Among all 5,500 compounds or so, about 2,000 (36%) were called active. Roughly 18% stayed inconclusive and do not appear here. Cut-off read from the data, not from the text of the source: active = normalized growth mostly below about 0.91 (no sharp cut-off); inconclusive = no clear call, values can overlap the other calls; inactive = mostly above about 0.92. The list shows a part of the results.
Classes used: true (1) = active, false (0) = inactive

Molecule	Cat
ONC(=Nc1ccccc1Cl)c1ccccc1Cl	false (0)
Clc1cccc(Cl)c1C1CC(c2ccccc2)=Nc2ccccc2S1 (stereo unspecified)	false (0)
O=C(Nc1ccc(SC(F)(F)F)cc1)Nc1ccc(Oc2cccc(C(F)(F)F)c2)nc1	false (0)
CCOC(=O)NC(=S)Nc1ccc(C(C)(C)C)cc1NC(=S)NC(=O)OCC	false (0)
COC(=O)/C=C1/OC(c2ccc(OC)cc2)=CC1=O	true (1)
O=C(NC(=S)NNc1ncc(C(F)(F)F)cc1Cl)c1cccs1	true (1)

====

test: chemical genetic growth profiling, strain panel (AID 1159580);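 further: tested at 20 µM; growth read once vehicle control cultures reached saturation at 30 °C; 1 = growth at the plate median or of vehicle wells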; conditions: S. cerevisiae deletion strains, growth OD, locus YOR231W, strain MKK1
About 2,000 (36%) of roughly 5,500 compounds were called active. Another 18% or so got no clear call; they are omitted. Cut-off read from the data, not from the text of the source: active = normalized growth mostly below about 0.91 (no sharp cut-off); inconclusive = no clear call, values can overlap the other calls; inactive = mostly above about 0.92. This is one part of the list.
Classes used: 1 = active, -1 = inactive

Compound	Cat
CO[C@H]1[C@H](O)[C@@H](O[C@H]2CC[C@]3(C=O)C4CC[C@]5(C)[C@@H](C6=CC(=O)OC6)CC[C@]5(O)C4CC[C@@H]3C2)O[C@@H](C)[C@@H]1O (stereo partly specified)	-1
CC1Cc2ccccc2N1NC(=O)c1ccc(Cl)c(S(N)(=O)=O)c1 (stereo unspecified)	-1
CC1(C)S[C@@H]2[C@H](NC(=O)[C@@H](N)c3ccc(O)cc3)C(=O)N2[C@H]1C(=O)O	-1
Nc1nc(/C(=C/CC(=O)O)C(=O)N[C@@H]2C(=O)N3C(C(=O)O)=CCS[C@H]23)cs1	-1
COc1ccccc1N1CCN(C(=O)C(C)c2ccc(CC(C)C)cc2)CC1 (stereo unspecified)	-1
NC(=O)c1ccc([N+](=O)[O-])cc1Cl	-1
CC[C@@]1(O)C(=O)OCc2c1cc1n(c2=O)Cc2cc3cc(O)ccc3nc2-1	-1
O=C(O)CN(CCN(CC(=O)O)CC(=O)O)CC(=O)O	-1
COC1C(O)C(C)OC(O[C@H]2CC[C@]3(C=O)C4C(CC[C@]3(O)C2)[C@@]2(O)CC[C@H](C3=CC(=O)OC3)[C@@]2(C)C[C@H]4O)C1O (stereo partly specified)	-1
COc1ccc(-c2cc(=O)c3c(O)cc(O)cc3o2)cc1	-1
NC(=O)c1cc([N+](=O)[O-])cc([N+](=O)[O-])c1	-1
N#Cc1nccnc1N1CCN(C(=O)Nc2cc(Cl)cc(Cl)c2)CC1	-1
CN(C)CC[C@H](c1ccc(Cl)cc1)c1ccccn1	-1
C[C@]12CCC3C(CC[C@]4(O)C[C@@H](O)CC[C@]34C=O)[C@@]1(O)CCC2C1=CC(=O)OC1 (stereo partly specified)	-1
CCCc1nc(C)c2c(=O)[nH]c(-c3cc(S(=O)(=O)N4CCN(CC)CC4)ccc3OCC)nn12	-1
CCCc1nn(C)c2c(=O)[nH]c(-c3cc(S(=O)(=O)N4CCN(C)CC4)ccc3OCC)nc12	-1
COC(=O)/C=C1/OC(c2ccc(OC)cc2)=CC1=O	1
CC1=CC(=O)C(C(C)C)=CC1=O	-1
C[C@H]1O[C@@H](O[C@H]2[C@@H](O)C[C@H](O[C@H]3[C@@H](O)C[C@H](O[C@H]4CC[C@]5(C)C6CC[C@]7(C)[C@@H](C8=CC(=O)OC8)CC[C@]7(O)C6CC[C@@H]5C4)O[C@@H]3C)O[C@@H]2C)C[C@H](O)[C@@H]1O (stereo partly specified)	-1
CCC(C)n1ncn(-c2ccc(N3CCN(c4ccc(OC[C@H]5CO[C@](Cn6cncn6)(c6ccc(Cl)cc6Cl)O5)cc4)CC3)cc2)c1=O (stereo partly specified)	1
OC(COCc1ccccc1)Cn1c2ccccc2c2ccccc21 (stereo unspecified)	-1
NC(=O)c1ccccc1O	-1
CC(=O)N1CCN(c2ccc(OCC3CO[C@](Cn4ccnc4)(c4ccc(Cl)cc4Cl)O3)cc2)CC1 (stereo partly specified)	1
CC(=O)O[C@@H]1CC2C(C)(CC[C@H](O)C2(C)C)C2CC[C@]3(C)C(=CC(=O)O[C@H]3c3ccoc3)C21C (stereo partly specified)	-1
COc1ccc(-c2cc(=O)c3c(O)c(OC)c(OC)c(OC)c3o2)cc1OC	-1
O=C(O/N=C1/CCCc2[nH]c3ccccc3c21)C1CCCCC1	-1
CC(=O)OCC(=O)[C@@]1(O)CCC2C3CCC4=CC(=O)C=C[C@]4(C)[C@@]3(Cl)[C@@H](Cl)C[C@@]21C (stereo partly specified)	-1
Cc1ncc(CO)c(CO)c1O	-1
C/C=C(\C)C(=O)O[C@@H]1c2c(ccc3ccc(=O)oc23)OC(C)(C)[C@@H]1OC(C)=O	-1
O=C(CCCN1CCC2(CC1)C(=O)NCN2c1ccccc1)c1ccc(F)cc1	-1
C[C@H]1O[C@@H](O[C@H]2[C@@H](O)C[C@H](O[C@H]3[C@@H](O)C[C@H](O[C@H]4CC[C@]5(C)C6C[C@@H](O)[C@]7(C)[C@@H](C8=CC(=O)OC8)CC[C@]7(O)C6CC[C@@H]5C4)O[C@@H]3C)O[C@@H]2C)C[C@H](O)[C@@H]1O (stereo partly specified)	-1
O=C1Nc2ccccc2/C1=C\c1cccc2ccccc12	-1
N#Cc1c(Cl)cccc1Cl	-1
CC1CCCC(C)N1NC(=O)c1ccc(Cl)c(S(N)(=O)=O)c1 (stereo unspecified)	-1
C[C@]12CC[C@H](O)C[C@H]1CCC1C2CC[C@]2(C)[C@@H](C3=CC(=O)OC3)[C@@H](O)C[C@]12O (stereo partly specified)	-1
C[C@@H]1CCC2[C@](C)(CO)[C@@H](O)CC[C@]2(C)[C@@]12CC[C@@](CO)(CCO)O2 (stereo partly specified)	-1

====

assay: chemical genetic growth profiling, strain panel (AID 1159580);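 further: tested at 20 µM; growth read once vehicle control cultures reached saturation at 30 °C; 1 = growth at the plate median or of vehicle wells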; conditions: S. cerevisiae deletion strains, growth OD, locus YKL085W, strain MDH1 (second series), stronger effect = lower value
The campaign covered roughly 5,500 compounds. About 2,000 (36%) were called active. About 18% were inconclusive and are not listed. The list shows a part of the results.
# key: entry, value: normalized growth
Assay Metric: normalized growth

Compound	Assay Metric	Observed Result
COc1cc(C)c2c(=O)c3c(O)cc(OC)cc3oc2c1	normalized growth	1.03 (inactive)
NCC(O)CC(=O)O (configuration not stated)	normalized growth	1 (inactive)
COc1ccc(-c2cc(=O)c3c(O)cc(O)cc3o2)cc1O	normalized growth	0.913 (active)
NC(N)=Nc1ccc(Cl)cc1	normalized growth	1.01 (inactive)
COc1cc(C)c2c(=O)c3c(O)cc(O)cc3oc2c1	normalized growth	0.952 (inactive)
COc1cc(O)c2c(=O)cc(-c3ccc(OC)c(-c4c(O)cc(O)c5c(=O)cc(-c6ccc(O)cc6)oc45)c3)oc2c1	normalized growth	1 (inactive)
COC(=O)C(N)CS (configuration not stated)	normalized growth	0.992 (inactive)
O=C(Oc1ccccc1C(=O)O)c1ccccc1O	normalized growth	0.998 (inactive)
CCCCCC(O)C1C(=O)OC(C)C(O)/C=C/C=C/C=C/C=C/C=C(\C)C(O)CC(O)CC(O)CC(O)CC(O)CC(O)CC1O (configuration not stated)	normalized growth	0.975 (inactive)
COc1cc(C(=O)N2CCOCC2)cc(OC)c1OC	normalized growth	0.353 (active)
COc1cc(C(=O)O)cc(OC)c1OC	normalized growth	1.07 (inactive)
CC(=O)Oc1ccccc1C(=O)Oc1ccccc1C(=O)O	normalized growth	0.998 (inactive)

====

experiment: chemical genetic growth profiling, strain panel (AID 1159580);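 further: tested at 20 µM; growth read once vehicle control cultures reached saturation at 30 °C; 1 = growth at the plate median or of vehicle wells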; details: S. cerevisiae deletion strains, growth OD, locus YBR229C, strain ROT2, stronger effect = lower value
Hit rate of the full screen: of about 5,500 compounds, about 2,000 (36%) were called active. Another 18% or so got no clear call; they are omitted. This is one part of the list.
Assay Metric: normalized growth

Compound	Assay Metric	Observed Result
CCCCCC(O)C1C(=O)OC(C)C(O)/C=C/C=C/C=C/C=C/C=C(\C)C(O)CC(O)CC(O)CC(O)CC(O)CC(O)CC1O (stereo not given)	normalized growth	1.01
COC(=O)[C@H]1[C@H]2C[C@H]3c4[nH]c5cc(OC)ccc5c4CCN3C[C@H]2C[C@@H](OC(=O)c2cc(OC)c(OC)c(OC)c2)[C@@H]1OC	normalized growth	1
CC(C)=CC1C(CO)C1(C)C (stereo not given)	normalized growth	1.02
CC1(C)[C@@H]2CC[C@@]1(C)C(=O)C2	normalized growth	0.99
COc1ccccc1N1CCN(C(=O)Nc2cc(Cl)cc(Cl)c2)CC1	normalized growth	0.988
O=C(Nc1ccc(Cl)cc1)N1CCN(c2ncccc2C(F)(F)F)CC1	normalized growth	0.979
COc1cc(NC(=S)N2CCN(c3ccccc3OC)CC2)c(OC)cc1Cl	normalized growth	0.992
CCc1ccc2c(O)c3c(cc2c1C(=O)OC)C(=O)c1c(O)ccc(O)c1C3=O	normalized growth	0.956
CSCCC(N)C(=O)NC(CC(C)C)C(=O)NC(Cc1ccccc1)C(=O)O (stereo not given)	normalized growth	1.01
O=C(NC1CCCCC1)N1CCN(c2ncccc2C(F)(F)F)CC1	normalized growth	0.994
